// data source = ChEMBL document CHEMBL1124253

For each of the compounds below, state its -Log KB.
Biological target: Serotonin 2 (5-HT2) receptor (Rattus norvegicus) (UniProt P30994+P08909+P14842)
Sequence (P08909 whole entry, looked up): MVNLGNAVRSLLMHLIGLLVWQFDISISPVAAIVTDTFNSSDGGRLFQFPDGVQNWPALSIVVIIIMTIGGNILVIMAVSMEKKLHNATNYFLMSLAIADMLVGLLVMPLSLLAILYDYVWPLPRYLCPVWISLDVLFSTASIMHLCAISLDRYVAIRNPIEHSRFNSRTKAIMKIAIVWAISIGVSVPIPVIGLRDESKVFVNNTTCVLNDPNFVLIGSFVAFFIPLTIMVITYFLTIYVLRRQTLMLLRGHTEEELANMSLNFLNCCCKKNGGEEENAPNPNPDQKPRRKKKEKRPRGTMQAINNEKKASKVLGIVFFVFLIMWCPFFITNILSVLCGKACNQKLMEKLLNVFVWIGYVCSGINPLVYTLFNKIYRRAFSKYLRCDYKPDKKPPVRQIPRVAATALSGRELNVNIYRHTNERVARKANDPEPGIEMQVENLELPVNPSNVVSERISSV
Sequence (P14842 whole entry, looked up): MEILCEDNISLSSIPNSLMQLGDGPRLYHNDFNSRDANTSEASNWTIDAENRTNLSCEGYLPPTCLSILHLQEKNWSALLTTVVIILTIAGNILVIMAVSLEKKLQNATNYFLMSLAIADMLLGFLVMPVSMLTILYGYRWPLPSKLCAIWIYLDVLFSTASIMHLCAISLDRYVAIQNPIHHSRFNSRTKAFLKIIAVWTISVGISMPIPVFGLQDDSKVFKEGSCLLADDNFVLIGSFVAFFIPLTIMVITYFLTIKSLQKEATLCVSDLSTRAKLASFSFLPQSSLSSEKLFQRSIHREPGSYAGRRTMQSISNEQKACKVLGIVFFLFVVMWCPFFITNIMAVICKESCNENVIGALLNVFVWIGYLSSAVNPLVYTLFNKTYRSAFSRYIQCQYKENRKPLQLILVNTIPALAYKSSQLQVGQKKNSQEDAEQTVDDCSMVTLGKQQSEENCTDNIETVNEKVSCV
Sequence (P30994 whole entry, looked up): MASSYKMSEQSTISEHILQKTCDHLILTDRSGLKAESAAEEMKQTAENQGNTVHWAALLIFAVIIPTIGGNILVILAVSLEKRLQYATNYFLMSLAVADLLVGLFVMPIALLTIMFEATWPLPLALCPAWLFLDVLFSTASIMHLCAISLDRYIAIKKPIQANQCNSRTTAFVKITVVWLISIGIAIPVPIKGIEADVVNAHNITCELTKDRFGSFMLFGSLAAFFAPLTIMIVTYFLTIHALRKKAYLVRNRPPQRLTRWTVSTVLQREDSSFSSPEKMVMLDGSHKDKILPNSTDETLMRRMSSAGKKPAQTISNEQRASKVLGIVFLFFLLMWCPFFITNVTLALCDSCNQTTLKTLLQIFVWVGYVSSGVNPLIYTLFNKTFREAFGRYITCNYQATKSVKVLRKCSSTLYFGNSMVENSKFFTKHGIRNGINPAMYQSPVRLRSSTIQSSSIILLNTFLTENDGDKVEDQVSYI
Test: Binding affinity to the 5-hydroxytryptamine 2 receptor assayed by antagonism of serotonin-induced contractions in the rat jugular vein
Give bare numbers.

CC(C)N1C[C@H](C(=O)OC2CCCCC2)CC2c3cccc4c3c(cn4C(C)C)CC21 (some centres undefined) | 6.42
CC(O)C(C)OC(=O)[C@@H]1CC2c3cccc4c3c(cn4C(C)C)CC2N(C)C1 (some centres undefined) | 10.3
CC(C)n1cc2c3c(cccc31)C1C[C@@H](C(=O)OC3CCCC3)CN(C)C1C2 (some centres undefined) | 8.91

Now for a further compound.
Fill blank: measured -Log KB of the compound CC(C)n1cc2c3c(cccc31)C1C[C@@H](C(=O)OC3CCCCCC3)CN(C)C1C2 (some centres undefined) is ____.
7.73
